- TARGET_OF_ASSAY: human IL-6 (as added in the B9 and 7TD1 bioassays) (human, UniProt P05231 30-212)
- ASSAY_EXPLANATION: cell-based or functional assay

BINDER | Rel. Potency, 7TD1, exp 29.06
127F1 (germlined variant of 68F2), full-length IgG1 (antibody, V domains shown) VH: EVQLQESGPGLVKPSQTLSLTCTVSGGSITTRYYAWSWIRQPPGKGLEWIGVIDYDGDTYYSPSLKSRVSISWDTSKNQFSLKLSSVTAADTAVYYCARDPDVVTGFHYDYWGQGTLVTVSS VL: QSVLTQPPSVSGTPGQRVTISCAGANNDIGTYAYVSWYQQLPGTAPKLLIYKVTTRASGVPDRFSGSKSGNSASLTITGLQSEDEADYYCASYRNFNNAVFGGGTHLTVL | 0.88
129E11 (germlined variant of 68F2), full-length IgG1 (antibody, V domains shown) VH: EVQLQESGPGLVKPSQTLSLTCTVSGGSITSRYYAWSWIRQPPGKGLEWMGVIDYDGDTYYSPSLKSRVTISVDTSKNQFSLKLSSVTAEDTAVYYCARDPDVVTGFHYDYWGQGTLVTVSS VL: QSALTQPPLVSGSPGQTVTISCAGANNDIGTYAYVSWYQQLPGTAPKLLIYKVTTRASGVPDRFSGSKSGNTASLTISGLQSEDEADYYCASYRNFNNAVFGTGTKLTVL | 0.65
129D3 (germlined variant of 68F2), full-length IgG1 (antibody, V domains shown) VH: EVQLQESGPGLVKPSQTLSLTCTVSGGSITSRYYAWSWIRQPPGKGLEWIGVIDYDGDTYYSPSLKSRVSISWDTSKNQFSLKLSSVTPADTAVYYCARDPDVVTGFHYDYWGQGTMVTVSS VL: QSALTQPPSVSGTPGQSVTISCAGANNDIGTYAYVSWYQQLPGTAPKLMIYKVTTRASGIPDRFSGSKSGNTASLTISGLQAEDEADYYCASYRNFNNAVFGTGTKLTVL | 0.98
126A3 (germlined variant of 68F2), full-length IgG1 (antibody, V domains shown) VH: EVQLQESGPGLVKPSQTLSLTCTVSGGSITTRYYAWSWIRQPPGKGLEWIGVIDYDGDTYYSPSLKSRVTISVDTSKNQFSLKLSSVTAADTAVYYCARDPDVVTGFHYDYWGQGTMVTVSS VL: QSALTQPPSVSGAPGQTVTISCAGANNDIGTYAYVSWYQQLPGTAPKLLIYKVTTRASGIPSRFSGSKSGNTASLTITGLQSEDEADYYCASYRNFNNAVFGRGTKLTVL | 0.99
129F2 (germlined variant of 68F2), full-length IgG1 (antibody, V domains shown) VH: EVQLQESGPGLVKPSQTLSLTCTVSGGSITSRYYAWSWIRQPPGKGLEWIGVIDYDGDTYYSPSLKSRVTISWDTSKNQFSLKLSSVTAEDTAVYYCARDPDVVTGFHYDYWGQGTMVTVSS VL: QSALTQPPSVSGTPGQTVTISCAGANNDIGTYAYVSWYQQLPGTAPKLMIYKVTTRASGIPDRFSGSKSGNTASLTISGLQSEDEADYYCASYRNFNNAVFGGGTKLTVL | 1.08
